Entry source: PubChem BioAssay (NCATS)

Biological target: Peroxisome proliferator-activated receptor delta (Homo sapiens) (UniProt Q03181)
Sequence (Q03181 whole entry, looked up): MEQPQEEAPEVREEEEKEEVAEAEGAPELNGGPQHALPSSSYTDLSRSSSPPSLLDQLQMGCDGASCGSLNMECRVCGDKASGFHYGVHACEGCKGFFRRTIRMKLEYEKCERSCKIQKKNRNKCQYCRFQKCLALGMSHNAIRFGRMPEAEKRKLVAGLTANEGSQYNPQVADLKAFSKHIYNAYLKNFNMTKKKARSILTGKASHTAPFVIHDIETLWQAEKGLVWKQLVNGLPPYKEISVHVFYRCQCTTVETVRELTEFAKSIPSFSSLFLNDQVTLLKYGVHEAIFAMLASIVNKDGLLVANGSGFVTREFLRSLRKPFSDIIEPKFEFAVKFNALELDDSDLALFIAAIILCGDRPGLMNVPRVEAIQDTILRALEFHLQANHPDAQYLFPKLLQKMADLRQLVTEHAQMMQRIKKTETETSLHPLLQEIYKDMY
Experiment: qHTS assay for small molecule antagonists of peroxisome proliferator-activated receptor delta signaling (AID 588535)
Conditions: HEK293T PPARd-UAS-bla, beta-lactamase FRET ratio, 18 h; series mostly up to 76.7 µM
Records with an inconclusive call do not appear. Calls of active or inactive are those of the source. Calls follow the shape of the dose curve; as a rule, active = well fitted inhibition curve with a large enough effect in the signal ratio, with a control signal flat (not every such curve was filed as active); inconclusive = small, poorly fitted or top-dose-only effect, or effect the other way, or a change in a side signal; inactive = no such curve, though single readings can be large or run the other way; the % refers to the signal ratio.
REPORTED PROPERTY: outcome

# count of solved cases: 4
> print(dat)
                                   compound    result
1  OC(c1ccc(Cl)cc1)(c1cncnc1)c1ccccc1Cl (stereo not given)  inactive
2  CCOc1ccc(C(C)(C)COCc2cccc(Oc3ccccc3)c2)cc1  inactive
3  CC1(C)[C@H](C(=O)O[C@H](C#N)c2cccc(Oc3ccccc3)c2)[C@@H]1/C=C(\Cl)C(F)(F)F  inactive
4  CC(C)C(=O)OCC(C)(C)C(OC(=O)C(C)C)C(C)C (stereo not given)  inactive

Exercise: # lookup: outcome of Cc1cccc2sc3nncn3c12
Key: inactive

Exercise: Please look up its outcome: CC(C)=CC1C(C(=O)OCc2coc(Cc3ccccc3)c2)C1(C)C (stereo not given)
Key: inactive

Exercise: I would be grateful if you could share the reported outcome for CCCC1COC(Cn2cncn2)(c2ccc(Cl)cc2Cl)O1 (stereo not given) .
Key: inactive

Exercise: Please give the measured outcome for this compound: CC(C)COP(=O)(OCC(C)C)OCC(C)C
Key: inactive

Exercise: Looking for the measured outcome of CCOP(=S)(OCC)SCn1nnc2ccccc2c1=O , can you help?
Key: inactive

Exercise: Quick one: outcome of CCOS(=O)(=O)OCC ?
Key: inactive

Exercise: Quick one: outcome of c1cc[n+]2c(c1)-c1cccc[n+]1CC2 ?
Key: inactive

Exercise: # lookup: outcome of CCC/C(=N\OCC)C1=C(O)CC(CC(C)SCC)CC1=O (stereo not given)
Key: inactive

----------
Biological target: Thyroid hormone receptor beta (Homo sapiens)
Assay: qHTS assay for small molecule antagonists of thyroid hormone receptor beta signaling (AID 588547);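 also: cells stimulated with 0.4 nM T3 agonist during compound exposure; % is scaled to controls: 0 for no effect and ±100 for the full control effect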
Settings: TR-UAS-bla HEK293, beta-lactamase ratio, antagonist mode, 18 h
Results filed as inconclusive are left out.
REPORTED PROPERTY: activity change % (negative = inhibition) (%)
Write the value in % as a bare number.

Exercise: I would be grateful if you could share the reported activity change % (negative = inhibition) for CC(C1CC1)C(O)(Cn1cncn1)c1ccc(Cl)cc1 (stereo not given) .
Key: -18.1

Exercise: Using the record for CC(C)=C[C@@H]1[C@@H](C(=O)OCN2C(=O)C3=C(CCCC3)C2=O)C1(C)C , report its activity change % (negative = inhibition).
Key: 7.01

Exercise: Fill in: activity change % (negative = inhibition) of CC1=NNC(=O)N(/N=C/c2cccnc2)C1 is ___
Key: -22

Exercise: Which measured activity change % (negative = inhibition) value corresponds to CCCSP(=O)(OCC)Oc1ccc(Br)cc1Cl (stereo not given) ?
Key: 3.3

Exercise: Give its activity change % (negative = inhibition) value. Item: C#CCC1=C(C)[C@H](OC(=O)[C@H]2[C@H](C=C(C)C)C2(C)C)CC1=O
Key: -5.41

Exercise: activity change % (negative = inhibition) for Clc1ccc(C(Cl)(Cl)Cl)cc1 ?
Key: -0.364

Exercise: Given Cc1nc(N(C)C)nc(OC(=O)N(C)C)c1C , state its recorded activity change % (negative = inhibition).
Key: -14.4

Exercise: Which value of activity change % (negative = inhibition) has been reported for CC1(C(=O)Nc2ccc(O)c(Cl)c2Cl)CCCCC1 in the records?
Key: 15.7

Exercise: Endpoint output: activity change % (negative = inhibition) of N#CN=C1SCCN1Cc1ccc(Cl)nc1 . Value?
Key: -1.19

Exercise: Given O=C(Nc1ccccc1)Nc1cnns1 , state its recorded activity change % (negative = inhibition).
Key: 24.1

Exercise: What measured activity change % (negative = inhibition) goes with N#Cc1cc(Br)c(O)c(Br)c1 ?
Key: 6.22

Exercise: Could you tell me which activity change % (negative = inhibition) is on file for FC(F)(F)c1ccc(Cl)cc1 ?
Key: 6.64

Exercise: Recorded activity change % (negative = inhibition) of CCNc1nc(NCC)nc(SC)n1 , please.
Key: -6.04

Exercise: Give the measured activity change % (negative = inhibition) of CC(c1ccc(O)cc1)(c1ccc(O)cc1)c1ccc(O)cc1 .
Key: -15

Exercise: For the compound CN(C)P(=O)(N(C)C)N(C)C , what activity change % (negative = inhibition) is on record?
Key: -0.373

Exercise: For the compound CC(C)C(=O)OCC(C)(C)C(OC(=O)C(C)C)C(C)C (stereo not given) , what activity change % (negative = inhibition) is on record?
Key: 4.21

Exercise: What activity change % (negative = inhibition) value was documented for this compound, CCCCN(CC)c1c([N+](=O)[O-])cc(C(F)(F)F)cc1[N+](=O)[O-] ?
Key: -21.6

Exercise: # activity change % (negative = inhibition) lookup, item COC(=O)c1ccccc1S(=O)(=O)NC(=O)N(C)c1nc(C)nc(OC)n1
Key: 9.61

Exercise: Could you tell me which activity change % (negative = inhibition) is on file for C[N+]1(C)CCCCC1 ?
Key: 2.54

Exercise: Return reported activity change % (negative = inhibition); argument: CCOP(=S)(OCC)SCn1nnc2ccccc2c1=O
Key: -2.51

Exercise: Query: activity change % (negative = inhibition); subject: CCc1ccc(C(=O)NN(C(=O)c2cc(C)cc(C)c2)C(C)(C)C)cc1
Key: 18

Exercise: What measured activity change % (negative = inhibition) goes with O=S(=O)(O)C(F)(F)C(F)(F)C(F)(F)C(F)(F)C(F)(F)C(F)(F)F ?
Key: 23.1

Exercise: Tell me the measured activity change % (negative = inhibition) of CC(C)[C@H](C(=O)O[C@H](C#N)c1cccc(Oc2ccccc2)c1)c1ccc(Cl)cc1 , please.
Key: -0.522

Exercise: # activity change % (negative = inhibition) lookup, item COc1nc(C)nc(NC(=O)NS(=O)(=O)c2ccccc2CCC(F)(F)F)n1
Key: 9.28

Exercise: Using the record for CCCCN(CC)C(=O)SCCC , report its activity change % (negative = inhibition).
Key: 1.78

----------
Assay: Cell Viability - SH-SY5Y (AID 544);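 also: cells exposed to compound for 40 hours; nearly all actives have a fitted effect of over 55% in size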
Settings: SH-SY5Y neuroblastoma cell viability
Records with an inconclusive call do not appear. Calls of active or inactive are those of the source. Calls come from the whole dose curve; as a rule, active = well fitted cell-killing curve with a large enough effect; inconclusive = small, poorly fitted or top-dose-only effect; inactive = flat fitted curve, though single readings scatter.
Pick from active, inactive when you respond.

Exercise: Test call, this molecule: Clc1ccc(C(c2ccc(Cl)cc2)C(Cl)Cl)cc1
Key: active

Exercise: Per the assay record, what outcome was assigned to C[C@@H]1CC[C@@]2(OC1)O[C@H]1[C@@H](O)[C@H]3[C@@H]4CC[C@H]5C[C@@H](O[C@@H]6O[C@H](CO)[C@H](O[C@@H]7O[C@H](CO)[C@@H](O)[C@H](O[C@@H]8OC[C@@H](O)[C@H](O)[C@H]8O)[C@H]7O[C@@H]7O[C@H](CO)[C@@H](O)[C@H](O[C@@H]8O[C@H](CO)[C@@H](O)[C@H](O)[C@H]8O)[C@H]7O)[C@H](O)[C@H]6O)[C@H](O)C[C@]5(C)[C@H]4CC[C@]3(C)[C@H]1[C@@H]2C ?
Key: active

Exercise: Recorded call for FC(F)(F)c1ccc(Cl)cc1 ?
Key: inactive

Exercise: Test call for this molecule, please: O=C(CCl)c1ccccc1
Key: active

Exercise: Dear all, I need the recorded test outcome for CC(C)CC(C)Nc1ccc(Nc2ccccc2)cc1 (stereo unspecified) , thank you.
Key: active

Exercise: What is the recorded call for this molecule in the test? OC(c1ccc(Cl)cc1)(c1ccc(Cl)cc1)C(Cl)(Cl)Cl
Key: inactive

Exercise: What is the recorded call for this molecule in the test? O=C(O)C1C(C(=O)O)C2(Cl)C(Cl)=C(Cl)C1(Cl)C2(Cl)Cl (stereo unspecified)
Key: inactive

Exercise: I'd appreciate the recorded outcome for N#CC(Cl)Cl from this test.
Key: inactive

Exercise: Outcome? CCCCCCCCn1sccc1=O
Key: active

Exercise: Call for entry C#CCO :
Key: inactive

Exercise: Tell me the recorded outcome of this test for CN(C)c1ccc(N=O)cc1 .
Key: active

----------
Molecular target: Pyruvate kinase PKM (Homo sapiens)
Assay: qHTS Assay for Inhibitors of Human Muscle Pyruvate Kinase (AID 958)
Details: purified human PKM enzyme activity; series mostly up to 57.5 µM
Inconclusive results are not listed. Calls of active or inactive are those of the source. Calls follow the shape of the dose curve; as a rule, active = well fitted inhibition curve with a large enough effect; inconclusive = small, poorly fitted or top-dose-only effect; inactive = no such curve, though single readings can be large or run the other way.
Please reply with one of these outcomes: Y (active), N (inactive)

Exercise: Field: outcome | Entry: Oc1cc2c(cc1O)[C@H]1c3ccccc3CN[C@@H]1CC2
Key: N

Exercise: Please share the test call associated with NC(N)=Nc1ccc2[nH]c3c(c2c1)C[C@]1(O)[C@@H]2Cc4ccc(O)c5c4[C@]1(CCN2CC1CC1)[C@H]3O5 .
Key: Y

Exercise: Per the records of this test, what outcome belongs to CN[C@@H](C)[C@@H](O)c1ccccc1 ?
Key: Y

Exercise: Please let me know the test result on file for C[C@]12Cc3cn4c(nc3C=C1CC[C@H]1[C@@H]2CC[C@@]2(C)[C@H]1CC[C@@]2(O)C#N)nc1ccccc14 .
Key: N
